Field: IC50. Provide a value for each of the compounds that follow.
system: isolated rat hearts; experiment: Langendorff-perfused isolated rat heart: mechanical performance (RPP, HR, ±dP/dt, cardiac efficiency); conditions: read-out: IC50, half-maximal inhibitory concentration for RPP (heart contractile function); isolated rat heart, at 30 min perfusion
Numbers only, in µM.

See these solved cases before continuing.
Cc1ccnc2c1ccc1c(C)ccnc12.NCC(=O)[O-].O.O.O=[N+]([O-])[O-].[Cu+2] [Cas II-gly] :: 5.5
CC(=O)C=C(C)[O-].Cc1ccnc(-c2cc(C)ccn2)c1.O.O.O=[N+]([O-])[O-].[Cu+2] [Cas III-ia] :: 10

Requested read-out: IC50. Entry: CC(=O)C=C(C)[O-].Cc1ccnc2c1ccc1c(C)ccnc12.O.O.O=[N+]([O-])[O-].[Cu+2] [Cas III-Ea]
1.3

---

system: isolated rat hearts; test: Langendorff-perfused isolated rat heart: mechanical performance (RPP, HR, ±dP/dt, cardiac efficiency); settings: perfused at 5 μM
Value kind: heart rate (HR) reduction

CC(=O)C=C(C)[O-].Cc1ccnc2c1ccc1c(C)ccnc12.O.O.O=[N+]([O-])[O-].[Cu+2] :: not affected
COc1cccc2c1C(=O)c1c(O)c3c(c(O)c1C2=O)C[C@@](O)(C(=O)CO)C[C@@H]3O[C@H]1C[C@H](N)[C@H](O)[C@H](C)O1 [Doxo, Doxorubicin, reference compound] :: 24%
CC(=O)C=C(C)[O-].Cc1ccnc(-c2cc(C)ccn2)c1.O.O.O=[N+]([O-])[O-].[Cu+2] :: not affected
Cc1ccnc2c1ccc1c(C)ccnc12.NCC(=O)[O-].O.O.O=[N+]([O-])[O-].[Cu+2] :: not affected

---

system: mitochondria isolated from Cas-treated hearts; experiment: Respiratory activity of mitochondria isolated from treated hearts (Clark-type oxygen electrode); set-up: species or system rat; conditions: 10 mM glutamate-malate
Value kind: State 4 respiration (nmol O min^−1·mg^−1)
Numbers only, in nmol O min^−1·mg^−1.

Take a look at these entries with their results.
COc1cccc2c1C(=O)c1c(O)c3c(c(O)c1C2=O)C[C@@](O)(C(=O)CO)C[C@@H]3O[C@H]1C[C@H](N)[C@H](O)[C@H](C)O1 [Doxo, Doxorubicin, reference compound] :: 18
CC(=O)C=C(C)[O-].Cc1ccnc2c1ccc1c(C)ccnc12.O.O.O=[N+]([O-])[O-].[Cu+2] [Cas III-Ea] :: 24.5

Each of the following entries comes with a recorded value; kindly state State 4 respiration for each.
1. CC(=O)C=C(C)[O-].Cc1ccnc(-c2cc(C)ccn2)c1.O.O.O=[N+]([O-])[O-].[Cu+2] [Cas III-ia]
2. Cc1ccnc2c1ccc1c(C)ccnc12.NCC(=O)[O-].O.O.O=[N+]([O-])[O-].[Cu+2] [Cas II-gly]

1. 15.6
2. 13.0

---

Provide the recorded Respiratory control for the entries that follow.
test system: mitochondria isolated from Cas-treated hearts; assay: Respiratory activity of mitochondria isolated from treated hearts (Clark-type oxygen electrode); set-up: species or system rat; details: malate/glutamate

The examples below pair each entry with its known result.
CC(=O)C=C(C)[O-].Cc1ccnc2c1ccc1c(C)ccnc12.O.O.O=[N+]([O-])[O-].[Cu+2] :: 1.5 ± 0.2^∗
CC(=O)C=C(C)[O-].Cc1ccnc(-c2cc(C)ccn2)c1.O.O.O=[N+]([O-])[O-].[Cu+2] :: 1.3 ± 0.1^∗
COc1cccc2c1C(=O)c1c(O)c3c(c(O)c1C2=O)C[C@@](O)(C(=O)CO)C[C@@H]3O[C@H]1C[C@H](N)[C@H](O)[C@H](C)O1 [Doxo, Doxorubicin, reference compound] :: 1 ± 0.3^∗

Now examine the next entry.
Consider the compound shown here: Cc1ccnc2c1ccc1c(C)ccnc12.NCC(=O)[O-].O.O.O=[N+]([O-])[O-].[Cu+2] What is its recorded Respiratory control?
1.6 ± 0.3^∗
